# procedure_summary: Kinetic study: plasma kinetics of TMC278 after single IM or SC injection of a nanosuspension
# Format: in vivo, male beagle dogs
# condition_details: male, beagle, dog, plasma, sc, 5 mg/kg, plasma concentration of TMC278, single SC 5 mg/kg TMC278 nanosuspension, dog 19129, 480 h (d20)
reported_endpoint: concentration at 480 h (ng/mL)
Write down the numeric answer in ng/mL and omit the unit.

Fill in: concentration at 480 h of `Cc1cc(C=CC#N)cc(C)c1Nc1ccnc(Nc2ccc(C#N)cc2)n1` is ___
29.8

====

# procedure_summary: Kinetic study: plasma kinetics of TMC278 after single IM or SC injection of a nanosuspension
# Type: in vivo, male beagle dogs
# condition_details: male, beagle, dog, plasma, intramuscular, 5 mg/kg, plasma concentration of TMC278, single IM 5 mg/kg TMC278 nanosuspension, dog 18186, 1032 h (d43)
reported_endpoint: concentration at 1032 h (ng/mL)
Dear colleague, please return just the value in ng/mL, with no unit written.

Entry `Cc1cc(C=CC#N)cc(C)c1Nc1ccnc(Nc2ccc(C#N)cc2)n1` : reported concentration at 1032 h = ?
5.18

====

# procedure_summary: Kinetic study: plasma kinetics of TMC278 after single IM or SC injection of a nanosuspension
# Assay type: in vivo, male beagle dogs
# condition_details: male, beagle, dog, plasma, sc, 5 mg/kg, plasma concentration of TMC278, single SC 5 mg/kg TMC278 nanosuspension, mean of 2 dogs, 192 h (d8)
reported_endpoint: concentration at 192 h (ng/mL)
Answer with a number only, understood to be in ng/mL.

Could you share which concentration at 192 h value was measured for Cc1cc(C=CC#N)cc(C)c1Nc1ccnc(Nc2ccc(C#N)cc2)n1 [TMC278] ?
20.4

====

# procedure_summary: Kinetic study: plasma kinetics of TMC278 after single IM or SC injection of a nanosuspension
# Format: in vivo, male beagle dogs
# condition_details: male, beagle, dog, plasma, sc, 5 mg/kg, plasma concentration of TMC278, single SC 5 mg/kg TMC278 nanosuspension, mean of 2 dogs, 1872 h (d78)
reported_endpoint: concentration at 1872 h
Could you write the number and then its unit?

Which concentration at 1872 h value belongs to `Cc1cc(C=CC#N)cc(C)c1Nc1ccnc(Nc2ccc(C#N)cc2)n1` ?
2.79 ng/mL

====

# procedure_summary: Kinetic study: plasma kinetics of TMC278 after single IM or SC injection of a nanosuspension
# Format: in vivo, male beagle dogs
# condition_details: male, beagle, dog, plasma, sc, 5 mg/kg, plasma concentration of TMC278, single SC 5 mg/kg TMC278 nanosuspension, dog 19349, 312 h (d13)
reported_endpoint: concentration at 312 h (ng/mL)
The figure you give is taken to be in ng/mL; do not add the unit.

So what's the measured concentration at 312 h for this one? `Cc1cc(C=CC#N)cc(C)c1Nc1ccnc(Nc2ccc(C#N)cc2)n1`
38.8

====

# procedure_summary: Kinetic study: plasma kinetics of TMC278 after single IM or SC injection of a nanosuspension;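 also: healthy male beagle dogs injected in both biceps femoris muscles (IM) or both thoracal sides (SC), total volume 0.2 mL/kg, drug measured in plasma from blood samples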
# Type: in vivo, male beagle dogs
# condition_details: male, beagle, dog, plasma, sc, 5 mg/kg, plasma concentration of TMC278, single SC 5 mg/kg TMC278 nanosuspension, mean of 2 dogs, 648 h (d27)
reported_endpoint: concentration at 648 h
Kindly format the answer as number then unit.

Which concentration at 648 h is reported for this compound? `Cc1cc(C=CC#N)cc(C)c1Nc1ccnc(Nc2ccc(C#N)cc2)n1`
15 ng/mL

Source: patent US11389447B2
